# Tested on: TSU
# Test: Antiproliferative activity against prostate cancer TSU-Pr1 cell line using sulforhodamine B(SRB) assay
# Type: functional, cell-based
# Measurement Setup: Homo sapiens
Quick reference: pIC50 of the listed items.
pIC50 is a log-scale quantity: -log10 of the concentration expressed in molar.

CCCCCCCCCCCCCCCCCCNC(=O)[C@H]1CSC(c2ccc(OC)c(OC)c2)N1 (stereo partly drawn) : 5.62
CC(=O)O[C@H]1C(=O)[C@@]2(C)[C@H]([C@H](OC(=O)c3ccccc3)[C@]3(O)C[C@H](OC(=O)[C@H](O)[C@@H](NC(=O)c4ccccc4)c4ccccc4)C(C)=C1C3(C)C)[C@]1(OC(C)=O)CO[C@@H]1C[C@@H]2O : 8.68

Notebook: CCCCCCCCCCCCCCCCCCNC(=O)[C@H]1CSC(c2ccc(C)cc2)N1 (stereo partly drawn) , pIC50 read as 5.10

Notebook: CCCCCCCCCCCCCCCCCCNC(=O)[C@H]1CSC(c2cc(OC)c(OC)c(OC)c2)N1 (stereo partly drawn) , pIC50 read as 5.62

Notebook: CCCCCCCCCCCCCCCCCCNC(=O)[C@H]1CSC(c2ccoc2)N1 (stereo partly drawn) , pIC50 read as 5.38
